Test system: Sonic hedgehog protein (Shh)
Test: Sonic hedgehog microarray binding compounds – biochemical, small-molecule microarray, 635/667 nm fluorescence, primary screen (AID 1151);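 also: Shh protein binding to compounds spotted on small-molecule microarray slides; score combines spot fluorescence intensity with signal-to-noise across triplicate slides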
Conditions: 635 nm fluorescence, higher = more signal
measurement.name: composite z-score

COc1ccccc1CN1C(=O)c2ccccc2[C@](Cc2ccccc2I)(C(=O)NCc2ccccc2)[C@@H]1c1ccc(CO)cc1    -0.197
O=C1O[C@H](c2ccccc2)[C@H](c2ccccc2)N2[C@H]1[C@@H](C(=O)N1CCCCCCC1)[C@]1(C(=O)Nc3ccc(C#CC4=CCCCC4)cc31)[C@H]2c1ccc(O)cc1    2.29

Query string: Entry CC(C)C(O)C1C=CC2C(=O)N(C)C(=O)C2N1N1CCCCC1 (configuration not stated) needs its composite z-score filled in; supply it.
Result string: 0.192

Query string: Entry CC(C)(C)OC(=O)CC[C@@]1(C(=O)N2CCOCC2)N=C(c2ccc(OCCCO)cc2)O[C@@H]1c1ccccc1N=[N+]=[N-] needs its composite z-score filled in; supply it.
Result string: 0.535

Query string: Entry CC(C)NC(=O)[C@@]1(c2ccc([N+](=O)[O-])cc2)CC(=O)N(C(C)C)[C@@H]1c1ccc(CO)cc1 needs its composite z-score filled in; supply it.
Result string: -0.502
